// reported Peak Ratio, chemotaxis, SUPB-15, 1.0 uM for each item listed
molecular target: CXCR4 receptor (human, UniProt P61073 1-352); test: cell-based or functional assay
Sequence (P61073 whole entry): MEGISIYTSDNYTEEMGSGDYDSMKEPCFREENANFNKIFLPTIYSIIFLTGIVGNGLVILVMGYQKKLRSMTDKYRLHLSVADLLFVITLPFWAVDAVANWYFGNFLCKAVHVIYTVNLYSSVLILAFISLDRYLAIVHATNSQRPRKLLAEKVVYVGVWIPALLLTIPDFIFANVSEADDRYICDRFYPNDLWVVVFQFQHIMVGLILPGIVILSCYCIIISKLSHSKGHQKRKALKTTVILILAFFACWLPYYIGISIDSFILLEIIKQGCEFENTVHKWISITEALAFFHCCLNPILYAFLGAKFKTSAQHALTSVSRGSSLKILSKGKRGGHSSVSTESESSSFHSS
Ends that are not written are not given here. * marks the point of attachment. Palmitoyl = CCCCCCCCCCCCCCCC(=O)*
Measure: Peak Ratio, chemotaxis, SUPB-15, 1.0 uM

[
  {
    "Binder": "Palmitoyl-HATNSQRPRKLLAE-NH2 (SMILES CCCCCCCCCCCCCCCC(=O)N[C@@H](Cc1c[nH]cn1)C(=O)N[C@@H](C)C(=O)N[C@H](C(=O)N[C@@H](CC(N)=O)C(=O)N[C@@H](CO)C(=O)N[C@@H](CCC(N)=O)C(=O)N[C@@H](CCCNC(=N)N)C(=O)N1CCC[C@H]1C(=O)N[C@@H](CCCNC(=N)N)C(=O)N[C@@H](CCCCN)C(=O)N[C@@H](CC(C)C)C(=O)N[C@@H](CC(C)C)C(=O)N[C@@H](C)C(=O)N[C@@H](CCC(=O)O)C(N)=O)[C@@H](C)O) [CXCR4 i2 loop compound 81]",
    "Result Number": 0.2
  },
  {
    "Binder": "Palmitoyl-HATNSQRPRKLLAEK-NH2 (SMILES CCCCCCCCCCCCCCCC(=O)N[C@@H](Cc1c[nH]cn1)C(=O)N[C@@H](C)C(=O)N[C@H](C(=O)N[C@@H](CC(N)=O)C(=O)N[C@@H](CO)C(=O)N[C@@H](CCC(N)=O)C(=O)N[C@@H](CCCNC(=N)N)C(=O)N1CCC[C@H]1C(=O)N[C@@H](CCCNC(=N)N)C(=O)N[C@@H](CCCCN)C(=O)N[C@@H](CC(C)C)C(=O)N[C@@H](CC(C)C)C(=O)N[C@@H](C)C(=O)N[C@@H](CCC(=O)O)C(=O)N[C@@H](CCCCN)C(N)=O)[C@@H](C)O) [CXCR4 i2 loop compound 82]",
    "Result Number": 0.2
  },
  {
    "Binder": "DRYLAIVHATNSQRPRKLL-NH2 (not fully specified (N-terminus); also: second lipid on tether backbone (C31H62NC(O)- tether)) [CXCR4 i2 loop compound 76]",
    "Result Number": 1
  },
  {
    "Binder": "Palmitoyl-HATNSQRPRKLLAEKV-NH2 (SMILES CCCCCCCCCCCCCCCC(=O)N[C@@H](Cc1c[nH]cn1)C(=O)N[C@@H](C)C(=O)N[C@H](C(=O)N[C@@H](CC(N)=O)C(=O)N[C@@H](CO)C(=O)N[C@@H](CCC(N)=O)C(=O)N[C@@H](CCCNC(=N)N)C(=O)N1CCC[C@H]1C(=O)N[C@@H](CCCNC(=N)N)C(=O)N[C@@H](CCCCN)C(=O)N[C@@H](CC(C)C)C(=O)N[C@@H](CC(C)C)C(=O)N[C@@H](C)C(=O)N[C@@H](CCC(=O)O)C(=O)N[C@@H](CCCCN)C(=O)N[C@H](C(N)=O)C(C)C)[C@@H](C)O) [CXCR4 i2 loop compound 83]",
    "Result Number": 1
  },
  {
    "Binder": "Palmitoyl-HATNSQRPRKL-NH2 (SMILES CCCCCCCCCCCCCCCC(=O)N[C@@H](Cc1c[nH]cn1)C(=O)N[C@@H](C)C(=O)N[C@H](C(=O)N[C@@H](CC(N)=O)C(=O)N[C@@H](CO)C(=O)N[C@@H](CCC(N)=O)C(=O)N[C@@H](CCCNC(=N)N)C(=O)N1CCC[C@H]1C(=O)N[C@@H](CCCNC(=N)N)C(=O)N[C@@H](CCCCN)C(=O)N[C@@H](CC(C)C)C(N)=O)[C@@H](C)O) [CXCR4 i2 loop compound 79]",
    "Result Number": 0.2
  },
  {
    "Binder": "Palmitoyl-VHATNSQRPRKLLA-NH2 (SMILES CCCCCCCCCCCCCCCC(=O)N[C@H](C(=O)N[C@@H](Cc1c[nH]cn1)C(=O)N[C@@H](C)C(=O)N[C@H](C(=O)N[C@@H](CC(N)=O)C(=O)N[C@@H](CO)C(=O)N[C@@H](CCC(N)=O)C(=O)N[C@@H](CCCNC(=N)N)C(=O)N1CCC[C@H]1C(=O)N[C@@H](CCCNC(=N)N)C(=O)N[C@@H](CCCCN)C(=O)N[C@@H](CC(C)C)C(=O)N[C@@H](CC(C)C)C(=O)N[C@@H](C)C(N)=O)[C@@H](C)O)C(C)C) [CXCR4 i2 loop compound 78]",
    "Result Number": 0.2
  },
  {
    "Binder": "Palmitoyl-HATNSQRPRKLLA-NH2 (SMILES CCCCCCCCCCCCCCCC(=O)N[C@@H](Cc1c[nH]cn1)C(=O)N[C@@H](C)C(=O)N[C@H](C(=O)N[C@@H](CC(N)=O)C(=O)N[C@@H](CO)C(=O)N[C@@H](CCC(N)=O)C(=O)N[C@@H](CCCNC(=N)N)C(=O)N1CCC[C@H]1C(=O)N[C@@H](CCCNC(=N)N)C(=O)N[C@@H](CCCCN)C(=O)N[C@@H](CC(C)C)C(=O)N[C@@H](CC(C)C)C(=O)N[C@@H](C)C(N)=O)[C@@H](C)O) [CXCR4 i2 loop compound 80]",
    "Result Number": 0.2
  }
]
